- RUN DESCRIPTION: Plasma pharmacokinetics study in mice (non-compartmental analysis, HPLC-DAD)
- Assay type: in vivo, Balb/c mice
- REPORTED CONDITIONS: Balb/c, mouse, intravenous 15 mg/kg, mean ± SD, read-out: ke (converted)
METRIC NAME: k el (s⁻¹)

1. COc1cc2ccc(=O)oc2c2c1OC(C)(C)C=C2 = 7.5e-05

----------
- RUN DESCRIPTION: Lung distribution in mice (AUC lung/AUC plasma ratio)
- Type: in vivo
- REPORTED CONDITIONS: male, Balb/c, mouse, inhaled, inhalation 50 mg/kg, read-out: Lung penetration factor (AUC inf lung/AUC inf plasma)
METRIC NAME: Kp

1. COc1cc2ccc(=O)oc2c2c1OC(C)(C)C=C2 = 2.14

----------
- RUN DESCRIPTION: Plasma pharmacokinetics study in mice (non-compartmental analysis, HPLC-DAD)
- Type: in vivo, Balb/c mice
- REPORTED CONDITIONS: Balb/c, mouse, intravenous 15 mg/kg, mean ± SD
METRIC NAME: MRT (h)

1) COc1cc2ccc(=O)oc2c2c1OC(C)(C)C=C2 = 3.23

----------
- RUN DESCRIPTION: Plasma pharmacokinetics study in mice (non-compartmental analysis, HPLC-DAD)
- Format: in vivo, Balb/c mice
- REPORTED CONDITIONS: Balb/c, mouse, intravenous 15 mg/kg, mean ± SD, read-out: Vd
METRIC NAME: Vd (L/kg)

1. COc1cc2ccc(=O)oc2c2c1OC(C)(C)C=C2 = 19.6

----------
- RUN DESCRIPTION: Plasma pharmacokinetics study in mice (non-compartmental analysis, HPLC-DAD)
- Type: in vivo, Balb/c mice
- REPORTED CONDITIONS: Balb/c, mouse, inhaled or intranasal, inhalation 50 mg/kg, mean ± SD
- Description: The pharmacokinetic analysis was carried out with Balb/c mice (~30 g) obtained from the Animal Facilities at Oswaldo Cruz Foundation (Fiocruz, Bahia, Brazil) and kept in a room with environmental control (22 ± 2 °C and 12:12 h light–dark cycle), and with free access to water and food until the day of the experiment. […]
METRIC NAME: MRT (h)

1. COc1cc2ccc(=O)oc2c2c1OC(C)(C)C=C2 [6-methoxyseselin] = 5.4

Attribution: paper PMC11206778
